Test system: U2OS-LMNB1-TUBA1B-ACTB
Assay: cell count relative to DMSO control (panel C1, DRAQ5/ER stain) (fraction of control); higher = more cells (less toxicity)
Details: 1.25 µM; treatment time: 24 h
readoutType: cell count
Respond using a number only.

Lab note: "CO[C@H]1C[C@@H]2CC[C@@H](C)[C@@](O)(O2)C(=O)C(=O)N2CCCC[C@H]2C(=O)O[C@H]([C@H](C)C[C@@H]2CC[C@@H](O)[C@H](OC)C2)CC(=O)[C@H](C)/C=C(\C)[C@@H](O)[C@@H](OC)C(=O)[C@H](C)C[C@H](C)/C=C/C=C/C=C/1C" gave cell count of 1.07

Lab note: "N#CC(C#N)=NNc1ccc(OC(F)(F)F)cc1" gave cell count of 1.01

Lab note: "COC(=O)Nc1nc2ccc(C(=O)c3cccs3)cc2[nH]1" gave cell count of 1.01

Lab note: COc1ccc(C2CNC(=O)C2)cc1OC1CCCC1 (stereo unspecified) gave cell count of 0.963

Lab note: "N#C[C@H](O[C@@H]1O[C@H](CO[C@@H]2O[C@H](CO)[C@@H](O)[C@H](O)[C@H]2O)[C@@H](O)[C@H](O)[C@H]1O)c1ccccc1" gave cell count of 0.992

Lab note: "CC(=O)N[C@@H](CC(C)C)C(=O)N[C@@H](CC(C)C)C(=O)N[C@H](C=O)CCCN=C(N)N" gave cell count of 1.06

Lab note: O=C(/C=C\n1cnc(-c2cc(C(F)(F)F)cc(C(F)(F)F)c2)n1)NNc1cnccn1 [selinexor] gave cell count of 1.12

Lab note: "Cc1c2oc3c(C)ccc(C(=O)N[C@@H]4C(=O)N[C@H](C(C)C)C(=O)N5CCC[C@H]5C(=O)N(C)CC(=O)N(C)[C@@H](C(C)C)C(=O)O[C@@H]4C)c3nc-2c(C(=O)N[C@@H]2C(=O)N[C@H](C(C)C)C(=O)N3CCC[C@H]3C(=O)N(C)CC(=O)N(C)[C@@H](C(C)C)C(=O)O[C@@H]2C)c(N)c1=O" gave cell count of 1

Lab note: "CN(C)[C@@H]1C(O)=C(C(N)=O)C(=O)[C@@]2(O)C(O)=C3C(=O)c4c(O)ccc(Cl)c4[C@@](C)(O)[C@H]3C[C@@H]12" gave cell count of 1.1

Lab note: CCCC[C@H]1C(=O)O[C@H](C)[C@H](NC(=O)c2cccc(NC=O)c2O)C(=O)O[C@@H](C)[C@@H]1OC(=O)CC(C)C [antimycin-a] gave cell count of 0.716

Lab note: "CNCCCN1c2ccccc2CCc2ccccc21" gave cell count of 0.772

Lab note: "CCCCCCCC(=O)N[C@H](CN1CCCC1)[C@H](O)c1ccc2c(c1)OCCO2" gave cell count of 1.13

Lab note: "CC(C=CC(=O)NO)=C[C@@H](C)C(=O)c1ccc(N(C)C)cc1" gave cell count of 0.773

Lab note: CN(Cc1cnc2nc(N)nc(N)c2n1)c1ccc(C(=O)N[C@@H](CCC(=O)O)C(=O)O)cc1 [methotrexate] gave cell count of 0.728

Lab note: "CC(=O)O[C@H]1C(=O)[C@@]2(C)[C@H]([C@H](OC(=O)c3ccccc3)[C@]3(O)C[C@H](OC(=O)[C@H](O)[C@@H](NC(=O)c4ccccc4)c4ccccc4)C(C)=C1C3(C)C)[C@]1(OC(C)=O)CO[C@@H]1C[C@@H]2O" gave cell count of 1.08

Lab note: "COc1ccc(C[C@H](N)C(=O)N[C@H]2[C@@H](O)[C@H](n3cnc4c(N(C)C)ncnc43)O[C@@H]2CO)cc1" gave cell count of 0.957

Lab note: "Nc1ccn([C@@H]2O[C@H](CO)[C@@H](O)C2(F)F)c(=O)n1" gave cell count of 0.411

Lab note: "COc1ccc2cc1Oc1ccc(cc1)C[C@H]1c3cc(c(OC)cc3CCN1C)Oc1c(OC)c(OC)cc3c1[C@H](C2)N(C)CC3" gave cell count of 1.06

Lab note: CCN(CC)CCCC(C)Nc1c2ccc(Cl)cc2nc2ccc(OC)cc12 (stereo unspecified) gave cell count of 1.03

Lab note: "CO[C@H]1C[C@@H]2CC[C@@H](C)[C@@](O)(O2)C(=O)C(=O)N2CCCC[C@H]2C(=O)O[C@H]([C@H](C)C[C@@H]2CC[C@@H](OP(C)(C)=O)[C@H](OC)C2)CC(=O)[C@H](C)/C=C(\C)[C@@H](O)[C@@H](OC)C(=O)[C@H](C)C[C@H](C)/C=C/C=C/C=C/1C" gave cell count of 0.471

Lab note: CC(C)n1c(/C=C/C(O)CC(O)CC(=O)O)c(-c2ccc(F)cc2)c2ccccc21 (stereo unspecified) gave cell count of 0.943

Lab note: OC(CS)C(O)CS (stereo unspecified) gave cell count of 0.809

Lab note: CCOc1ccccc1-n1c(C(C)N2CCN(C(=O)COc3ccc(Cl)cc3)CC2)nc2ccccc2c1=O (stereo unspecified) gave cell count of 1.06

Lab note: "CC[C@@]1([C@@H]2O[C@@H]([C@H]3O[C@@](O)(CO)[C@H](C)C[C@@H]3C)C[C@@H]2C)CC[C@H]([C@]2(C)CC[C@]3(C[C@H](O)[C@@H](C)[C@@H]([C@@H](C)[C@@H](OC)[C@H](C)C(=O)O)O3)O2)O1" gave cell count of 0.642

Lab note: "CCCCCCCCCCCCCCCCCCOP(=O)([O-])OC1CC[N+](C)(C)CC1" gave cell count of 1.09

Lab note: N.N.[Cl][Pt][Cl] [cisplatin] gave cell count of 1.03

---

Tested on: U2OS-LMNB1-TUBA1B-ACTB
Assay: cell count relative to DMSO control (panel C1, DRAQ5/ER stain) (fraction of control); higher = more cells (less toxicity)
Settings: 0.625 µM; treatment time: 24 h
readoutType: cell count
Respond using a number only.

Lab note: "NS(=O)(=O)C#Cc1ccccc1" gave cell count of 1.06

Lab note: "COC(=O)Nc1nc2ccc(C(=O)c3cccs3)cc2[nH]1" gave cell count of 0.993

Lab note: "CC(C=CC(=O)NO)=C[C@@H](C)C(=O)c1ccc(N(C)C)cc1" gave cell count of 0.942

Lab note: "O=NN(CCCl)C(=O)NC1CCCCC1" gave cell count of 0.972

Lab note: "CC[C@@]1([C@@H]2O[C@@H]([C@H]3O[C@@](O)(CO)[C@H](C)C[C@@H]3C)C[C@@H]2C)CC[C@H]([C@]2(C)CC[C@]3(C[C@H](O)[C@@H](C)[C@@H]([C@@H](C)[C@@H](OC)[C@H](C)C(=O)O)O3)O2)O1" gave cell count of 0.699

Lab note: "CN(C)[C@@H]1C(O)=C(C(N)=O)C(=O)[C@@]2(O)C(O)=C3C(=O)c4c(O)ccc(Cl)c4[C@@](C)(O)[C@H]3C[C@@H]12" gave cell count of 1.12

Lab note: "CC(=O)O[C@H]1C(=O)[C@@]2(C)[C@H]([C@H](OC(=O)c3ccccc3)[C@]3(O)C[C@H](OC(=O)[C@H](O)[C@@H](NC(=O)c4ccccc4)c4ccccc4)C(C)=C1C3(C)C)[C@]1(OC(C)=O)CO[C@@H]1C[C@@H]2O" gave cell count of 1.09

---

System: U2OS
Assay: cell count relative to DMSO control (panel A, nuclei/RNA/PMG/mitochondria stain) (fraction of control); higher = more cells (less toxicity)
Conditions: 5 µM; treatment time: 24 h
readoutType: cell count
Respond using a number only.

Lab note: CCCC[C@H]1C(=O)O[C@H](C)[C@H](NC(=O)c2cccc(NC=O)c2O)C(=O)O[C@@H](C)[C@@H]1OC(=O)CC(C)C [antimycin-a] gave cell count of 0.497

Lab note: CC(C=CC(=O)NO)=C[C@@H](C)C(=O)c1ccc(N(C)C)cc1 [trichostatin-a] gave cell count of 0.427

Lab note: CCCCCCCCCCCCCCCCCCOP(=O)([O-])OC1CC[N+](C)(C)CC1 [perifosine] gave cell count of 0.979

Lab note: Fc1cc(F)c2c(c1)[C@H]1C=CC[C@H]1C(c1cccnc1)N2 (stereo partly drawn) [golgicide-A] gave cell count of 1.03

Lab note: Cc1c(Cl)cccc1Nc1ccccc1C(=O)O [tolfenamic-acid] gave cell count of 1.04

Lab note: CC(=O)N[C@@H](CC(C)C)C(=O)N[C@@H](CC(C)C)C(=O)N[C@H](C=O)CCCN=C(N)N [leupeptin] gave cell count of 1.04

Lab note: COc1cc(NS(C)(=O)=O)ccc1Nc1c2ccccc2nc2ccccc12 [amsacrine] gave cell count of 0.322

Lab note: COC(=O)Nc1nc2ccc(C(=O)c3cccs3)cc2[nH]1 [nocodazole] gave cell count of 0.692

Lab note: O=C(O)CCCCC(CCSCc1ccccc1)SCc1ccccc1 (stereo not drawn) [CPI-613] gave cell count of 1.14

Lab note: CN1CCC(c2c(O)cc(O)c3c(=O)cc(-c4ccccc4Cl)oc23)[C@@H](O)C1 (stereo partly drawn) [alvocidib] gave cell count of 0.142

Lab note: CO[C@H]1C[C@@H]2CC[C@@H](C)[C@@](O)(O2)C(=O)C(=O)N2CCCC[C@H]2C(=O)O[C@H]([C@H](C)C[C@@H]2CC[C@@H](O)[C@H](OC)C2)CC(=O)[C@H](C)/C=C(\C)[C@@H](O)[C@@H](OC)C(=O)[C@H](C)C[C@H](C)/C=C/C=C/C=C/1C [sirolimus] gave cell count of 0.947

Lab note: CC[C@H]1/C=C/C=C/C[C@@H](C)[C@H](O)[C@@](C)(O)C(=O)[C@@H](C)[C@H](O)[C@@H](C)C(=O)[C@@H](C)[C@H](O)[C@@H](C)/C=C/C(=O)O[C@@H]2[C@H](C)[C@H](CC1)O[C@]1(CC[C@H](C)[C@H](C[C@@H](C)O)O1)[C@H]2C [oligomycin-a] gave cell count of 0.99

Lab note: C[C@H]1O[C@@H](O[C@H]2[C@@H](O)C[C@H](O[C@H]3[C@@H](O)C[C@H](O[C@H]4CC[C@@]5(C)[C@H](CC[C@@H]6[C@@H]5CC[C@]5(C)[C@@H](C7=CC(=O)OC7)CC[C@]65O)C4)O[C@@H]3C)O[C@@H]2C)C[C@H](O)[C@@H]1O [digitoxin] gave cell count of 1.11
